Tested on: APAE001 (ATCC27853)
Experiment: MIC broth microdilution, APAE001
Type: cell-based, P. aeruginosa
Conditions: Pseudomonas aeruginosa, ATCC27853, read-out: MIC APAE001, APAE001 is ATCC27853
measured_parameter: MIC

See these solved cases before continuing.
molecule | experimental_target | measured_parameter | value_measured
C[C@H](O)[C@H](NC(=O)c1ccc(C#C/C=C/c2ccc(CO)cc2)cc1)C(=O)NO [Example 101-4] | APAE001 (ATCC27853) | MIC | 2 to 16 µg/mL
O=C(N[C@H](C(=O)NO)C1CCS(=O)(=O)CC1)c1ccc(C#Cc2ccc(CN3CCOCC3)cc2)cc1 [Example 67-9] | APAE001 (ATCC27853) | MIC | 16 to 64 µg/mL
O=C(NO)[C@H](Cc1ccccc1)NS(=O)(=O)c1ccc(C#Cc2ccc(CN3CCOCC3)cc2)cc1 [Example 62-6] | APAE001 (ATCC27853) | MIC | > 64 µg/mL
C[C@@H](N)[C@H](NC(=O)c1ccc(C#CC#Cc2ccccc2)cc1)C(=O)NO [Example 82-4] | APAE001 (ATCC27853) | MIC | 2 to 16 µg/mL
C[C@@H](O)[C@H](NC(=O)c1ccc(C#CC#Cc2cncn2C)cc1)C(=O)NO [Example 88-9] | APAE001 (ATCC27853) | MIC | 2 to 16 µg/mL

Req: State, in one line, measured MIC of C[C@@H](N)[C@H](NC(=O)c1ccc(C#C/C=C/c2ccc(CNC3CC3)cc2)cc1)C(=O)NO [Example 102-2]
Resp: 2 to 16 µg/mL

Req: Name the recorded MIC of the molecule listed here: C[C@@H](N)[C@H](NC(=O)c1ccc(C#Cc2ccc(CN3CCCOCC3)cc2)cc1)C(=O)NO [Example 118-7]
Resp: < 2 µg/mL

Req: Quick one: give measured MIC for C[C@@H](O)[C@H](NC(=O)c1ccc(Cc2ccc(CN3CCOCC3)cc2)cc1)C(=O)NO [Example 48-5]
Resp: > 64 µg/mL
